- test.system: Dnmt3a-CD (mouse (murine), UniProt O88508 630-908)
- Sequence (O88508 630-908): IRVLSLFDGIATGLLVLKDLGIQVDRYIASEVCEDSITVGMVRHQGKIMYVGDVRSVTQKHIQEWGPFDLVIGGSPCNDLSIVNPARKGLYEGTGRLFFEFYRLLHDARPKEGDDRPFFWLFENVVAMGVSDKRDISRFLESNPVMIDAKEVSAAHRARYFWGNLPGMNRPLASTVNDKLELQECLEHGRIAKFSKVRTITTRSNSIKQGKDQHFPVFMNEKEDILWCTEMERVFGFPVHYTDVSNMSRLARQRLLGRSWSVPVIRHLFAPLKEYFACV
- assay.protocol: fluorescence polarization; 100 uM AdoHcy; 20 mM HEPES-NaOH pH 7.5, 100 mM KCl, 1 mM EDTA, 1 mM DTT, 100 uM AdoHcy, 10 nM DNA (60 nM for PWWP); FP temperature not stated; methylation competition at 37 C
- test.settings: protein: recombinant; tags: N-terminal 6xHis; chain copies: 4; label: 5'-FAM on both strands; blunt
property.label: pKd
Units for pKd: none; it is -log10 of a concentration expressed in mol/L.

Field request: pKd | item: 30Uf/30Df (dsDNA) DNA 1: CTGAATACTACTTGCGCTCTCTAACCTGAT DNA 2: ATCAGGTTAGAGAGCGCAAGTAGTATTCAG
6.66
